Catalogue of MIC50 values
system: clinically isolated MRSA; assay: Antibacterial potency against clinically isolated MRSA (Test Example 4); assay type: cell-based, methicillin-resistant Staphylococcus aureus; conditions: Staphylococcus aureus; 52 strains of clinically isolated MRSA; concentration inhibiting growth of 50% of the strains (Test Example 4); read-out: MIC50

compound | unit-abbrev | MIC50
NC(=O)Cc1ccc[n+](CC2=C(C(=O)[O-])N3C(=O)[C@@H](NC(=O)/C(=N\O)c4csc(N)n4)[C@H]3SC2)c1 [Compound (7)] | µg/mL | 2.04
Cc1nc(-c2cc[n+](CC3=C(C(=O)[O-])N4C(=O)[C@@H](NC(=O)/C(=N\O)c5csc(N)n5)[C@H]4SC3)cc2)cs1 [Compound (13)] | µg/mL | 2.21
CNc1nc(-c2ccc[n+](CC3=C(C(=O)[O-])N4C(=O)[C@@H](NC(=O)/C(=N\O)c5csc(N)n5)[C@H]4SC3)c2)cs1 [Compound (10)] | µg/mL | 4.04
CCN(CC)C(=O)c1ccc[n+](CC2=C(C(=O)[O-])N3C(=O)[C@@H](NC(=O)/C(=N\O)c4csc(N)n4)[C@H]3SC2)c1 [Compound (14)] | µg/mL | 6.77
CNc1nc(-c2cc[n+](CC3=C(C(=O)[O-])N4C(=O)[C@@H](NC(=O)/C(=N\O)c5csc(N)n5)[C@H]4SC3)cc2)cs1 [Compound (12)] | µg/mL | 1.86
Nc1nc(/C(=N/O)C(=O)N[C@@H]2C(=O)N3C(C(=O)[O-])=C(C[n+]4cccc(-c5csc(N)n5)c4)CS[C@H]23)cs1 [Compound (9)] | µg/mL | 1.48
CNC(=O)c1ccc[n+](CC2=C(C(=O)[O-])N3C(=O)[C@@H](NC(=O)/C(=N\O)c4csc(N)n4)[C@H]3SC2)c1 [Compound (6)] | µg/mL | 2.15
Cc1nc(-c2ccc[n+](CC3=C(C(=O)[O-])N4C(=O)[C@@H](NC(=O)/C(=N\O)c5csc(N)n5)[C@H]4SC3)c2)cs1 [Compound (11)] | µg/mL | 1.85
